# system_under_test: UniProt Q9UBN7
# Sequence (Q9UBN7 whole entry): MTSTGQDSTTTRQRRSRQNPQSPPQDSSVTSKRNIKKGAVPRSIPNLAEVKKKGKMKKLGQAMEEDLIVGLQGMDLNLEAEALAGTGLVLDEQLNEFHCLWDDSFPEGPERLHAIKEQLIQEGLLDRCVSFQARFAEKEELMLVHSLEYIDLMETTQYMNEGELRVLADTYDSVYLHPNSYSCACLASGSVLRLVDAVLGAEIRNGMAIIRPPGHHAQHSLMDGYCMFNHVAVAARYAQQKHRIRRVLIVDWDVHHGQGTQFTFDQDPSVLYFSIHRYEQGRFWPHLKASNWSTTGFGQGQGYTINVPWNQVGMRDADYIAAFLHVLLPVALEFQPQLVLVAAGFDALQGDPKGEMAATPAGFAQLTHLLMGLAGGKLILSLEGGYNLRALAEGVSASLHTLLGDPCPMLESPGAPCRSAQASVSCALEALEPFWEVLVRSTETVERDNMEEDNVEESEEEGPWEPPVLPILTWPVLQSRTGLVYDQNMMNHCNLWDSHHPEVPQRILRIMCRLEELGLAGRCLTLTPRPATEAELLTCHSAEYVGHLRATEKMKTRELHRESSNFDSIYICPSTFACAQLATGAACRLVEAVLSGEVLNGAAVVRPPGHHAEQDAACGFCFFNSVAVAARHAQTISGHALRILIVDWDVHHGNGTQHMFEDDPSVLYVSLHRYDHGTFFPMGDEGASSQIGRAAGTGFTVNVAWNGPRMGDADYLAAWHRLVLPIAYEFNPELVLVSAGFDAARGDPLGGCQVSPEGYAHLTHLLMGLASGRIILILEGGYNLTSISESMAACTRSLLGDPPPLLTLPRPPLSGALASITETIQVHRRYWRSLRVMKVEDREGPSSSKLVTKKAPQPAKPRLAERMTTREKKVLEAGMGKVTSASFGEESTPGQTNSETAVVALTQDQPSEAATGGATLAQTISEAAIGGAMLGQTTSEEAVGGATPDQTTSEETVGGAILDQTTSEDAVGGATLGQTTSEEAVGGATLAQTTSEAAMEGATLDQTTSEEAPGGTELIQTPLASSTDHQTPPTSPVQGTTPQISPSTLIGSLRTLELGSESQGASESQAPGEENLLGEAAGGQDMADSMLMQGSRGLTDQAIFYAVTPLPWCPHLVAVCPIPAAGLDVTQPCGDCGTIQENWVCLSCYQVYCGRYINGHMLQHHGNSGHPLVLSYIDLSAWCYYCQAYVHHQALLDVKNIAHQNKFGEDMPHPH

molecule	system_under_test	IC50, nM
COc1ccc(C(F)(F)F)cc1CNc1ncc(C(=O)NO)cn1	UniProt Q9UBN7	2

---

# system_under_test: HDAC3 (Homo sapiens (Human), UniProt O15379)
# Sequence (O15379 whole entry): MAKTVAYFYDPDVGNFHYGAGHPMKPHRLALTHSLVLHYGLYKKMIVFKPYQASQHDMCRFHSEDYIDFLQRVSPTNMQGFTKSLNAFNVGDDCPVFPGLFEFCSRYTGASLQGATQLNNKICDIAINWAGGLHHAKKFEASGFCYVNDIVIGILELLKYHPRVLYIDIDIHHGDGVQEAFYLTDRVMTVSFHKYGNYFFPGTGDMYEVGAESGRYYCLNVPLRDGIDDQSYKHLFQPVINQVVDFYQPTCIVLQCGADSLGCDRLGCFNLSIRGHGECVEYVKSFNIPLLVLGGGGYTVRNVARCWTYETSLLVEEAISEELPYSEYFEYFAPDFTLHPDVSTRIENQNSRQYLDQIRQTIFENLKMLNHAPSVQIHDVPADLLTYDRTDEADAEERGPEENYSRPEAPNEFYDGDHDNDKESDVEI
# Sequence (Q9Y618 395-489 partner): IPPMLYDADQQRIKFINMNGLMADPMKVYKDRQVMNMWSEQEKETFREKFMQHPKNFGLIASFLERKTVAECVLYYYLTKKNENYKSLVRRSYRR
readout: IC50 (nM)

molecule	readout	value_observed
COc1ccc(C(F)(F)F)cc1CNc1ncc(C(=O)NO)cn1 [Compound 3]	IC50	105

---

# system_under_test: HDAC2 (Homo sapiens (Human), UniProt Q92769)
# Sequence (Q92769 whole entry): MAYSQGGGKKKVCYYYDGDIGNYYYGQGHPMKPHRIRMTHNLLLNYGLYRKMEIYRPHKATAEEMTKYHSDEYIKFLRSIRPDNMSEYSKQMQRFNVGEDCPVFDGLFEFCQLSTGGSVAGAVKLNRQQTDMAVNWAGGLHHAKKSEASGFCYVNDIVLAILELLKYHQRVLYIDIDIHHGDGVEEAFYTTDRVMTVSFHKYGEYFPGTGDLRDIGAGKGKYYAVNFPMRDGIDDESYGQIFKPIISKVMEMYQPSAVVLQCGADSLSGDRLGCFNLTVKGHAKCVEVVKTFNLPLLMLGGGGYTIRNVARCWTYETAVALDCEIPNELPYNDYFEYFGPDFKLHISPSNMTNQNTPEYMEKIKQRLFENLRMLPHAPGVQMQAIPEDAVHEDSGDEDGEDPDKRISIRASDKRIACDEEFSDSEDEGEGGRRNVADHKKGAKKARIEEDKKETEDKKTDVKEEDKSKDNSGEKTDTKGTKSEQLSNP
pIC50: −log10 of the molar value.
readout: pIC50

compound	readout	value_observed
COc1ccc(C(F)(F)F)cc1CNc1ncc(C(=O)NO)cn1 [Compound 3]	pIC50	7.09
